- Tested on: RD
- Method Description: Cytotoxicity against human RD cells after 3 days by neutral red dye-based photometric method
- Format: cell-based
- Recorded Conditions: rd, 72 h
Assign CC50 to each entry below.
Field format: number, assumed µM, no unit text.

## Input CC50 lookup needed for CCOCCOc1cc(C(=O)NCCN(CC)CC)c2ccccc2n1 , thanks.
## Output 144

## Input GET /values?readout=CC50&item= CCN(CC)CCNC(=O)c1cc(OCC2CC2)nc2ccccc12
## Output 38.5

## Input What does the data say about its CC50? Entry: CCN(CC)CCNC(=O)c1cc(-c2ccccc2)nc2ccc(F)cc12
## Output 24.9

## Input # lookup: CC50 of COc1ccc2nc(-c3ccccc3)cc(C(=O)NCCN(C)C)c2c1
## Output 31.8

## Input Item under review: CN(C)CCCNC(=O)c1cc(-c2ccccc2)nc2ccccc12 . Reported CC50?
## Output 44.9

## Input Fill in: CC50 of CCN(CC)CCNC(=O)c1cc(-c2ccc(OC)cc2)nc2ccccc12 is ___
## Output 31.6

## Input What value of CC50 has been recorded for this entry: CCOc1cc(C(=O)NCCN(CC)CC)c2ccccc2n1
## Output 165

## Input Would you mind telling me what CC50 value was observed for CCN(CC)CCCNC(=O)c1cc(-c2ccccc2)nc2ccccc12 ?
## Output 45.4

## Input Given the molecule CCN(CC)CCNC(=O)c1cc(-c2ccc(-c3ccccc3)cc2)nc2ccccc12 , what is its reported CC50?
## Output 9.8
